Listing of entries alongside the reported pKi.
- target_or_system: GABA-A receptor; alpha-3/beta-3/gamma-2 (Homo sapiens, UniProt P18507+P28472+P34903)
- Sequence (P18507 whole entry): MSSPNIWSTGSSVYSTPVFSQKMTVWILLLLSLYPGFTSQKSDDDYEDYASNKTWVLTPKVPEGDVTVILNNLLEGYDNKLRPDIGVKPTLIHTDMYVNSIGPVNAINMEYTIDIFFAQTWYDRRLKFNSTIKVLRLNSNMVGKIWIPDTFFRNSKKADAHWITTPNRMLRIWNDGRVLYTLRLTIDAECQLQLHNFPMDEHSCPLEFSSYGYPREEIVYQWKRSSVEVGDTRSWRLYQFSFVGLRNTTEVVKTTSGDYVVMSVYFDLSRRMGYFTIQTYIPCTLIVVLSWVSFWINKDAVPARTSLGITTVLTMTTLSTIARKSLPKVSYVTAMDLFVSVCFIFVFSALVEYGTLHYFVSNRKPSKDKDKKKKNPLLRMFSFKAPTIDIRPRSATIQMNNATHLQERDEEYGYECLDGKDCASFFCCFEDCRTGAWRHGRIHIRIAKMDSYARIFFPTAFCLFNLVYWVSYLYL
- Sequence (P28472 whole entry): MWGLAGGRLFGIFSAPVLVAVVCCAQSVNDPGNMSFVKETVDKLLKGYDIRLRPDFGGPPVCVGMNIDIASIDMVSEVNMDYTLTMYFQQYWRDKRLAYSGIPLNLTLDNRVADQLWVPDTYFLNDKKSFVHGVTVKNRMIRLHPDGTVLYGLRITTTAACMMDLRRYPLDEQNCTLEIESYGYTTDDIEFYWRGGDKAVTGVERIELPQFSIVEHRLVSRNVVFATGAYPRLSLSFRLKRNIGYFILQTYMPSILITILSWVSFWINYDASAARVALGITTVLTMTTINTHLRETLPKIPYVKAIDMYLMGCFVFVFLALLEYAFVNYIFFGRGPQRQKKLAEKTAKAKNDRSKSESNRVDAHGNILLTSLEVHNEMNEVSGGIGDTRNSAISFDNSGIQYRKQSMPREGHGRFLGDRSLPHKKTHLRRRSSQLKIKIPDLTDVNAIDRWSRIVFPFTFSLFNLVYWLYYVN
- Sequence (P34903 whole entry): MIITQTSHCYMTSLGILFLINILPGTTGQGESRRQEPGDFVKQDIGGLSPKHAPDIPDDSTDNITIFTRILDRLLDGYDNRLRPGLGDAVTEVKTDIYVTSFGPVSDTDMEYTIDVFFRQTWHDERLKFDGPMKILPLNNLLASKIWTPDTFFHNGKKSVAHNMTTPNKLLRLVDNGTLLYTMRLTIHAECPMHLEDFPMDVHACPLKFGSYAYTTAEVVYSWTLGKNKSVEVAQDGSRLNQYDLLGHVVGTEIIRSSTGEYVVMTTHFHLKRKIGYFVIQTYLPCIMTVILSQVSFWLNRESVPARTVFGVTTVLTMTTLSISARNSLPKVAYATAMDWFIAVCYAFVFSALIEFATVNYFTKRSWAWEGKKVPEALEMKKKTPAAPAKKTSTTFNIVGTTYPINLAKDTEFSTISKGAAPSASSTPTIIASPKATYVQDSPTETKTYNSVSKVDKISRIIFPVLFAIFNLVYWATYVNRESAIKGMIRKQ
- protocol_summary: Displacement of [3H]-flumazenil from human GABAA alpha3beta3gamma2 expressed in Ltk cells
- Type: cell-based
A value of pKi is the negative decimal logarithm of a concentration given in moles per litre.

{"columns": ["compound_structure_string", "target_or_system", "pKi"],
 "data": [
  ["Cn1ncnc1COc1nn2c(-c3cc(F)ccc3F)nnc2cc1C(C)(C)C", "GABA-A receptor; alpha-3/beta-3/gamma-2 (Homo sapiens, UniProt P18507+P28472+P34903)", 9.17]
]}

Proceeding to the next molecule to report its pKi.
Input: Reported pKi, molecule "Cn1ncnc1COc1nn2c(-c3c(F)cccc3F)nnc2cc1C1CCC1" : ____
Output: 9.68
